Target: recombinant human ALK enzyme (ALK WT) (Homo sapiens)
Construct: purchased Carna Biosciences 08-518
Sequence (Q9UM73 1058-1620 limits assumed): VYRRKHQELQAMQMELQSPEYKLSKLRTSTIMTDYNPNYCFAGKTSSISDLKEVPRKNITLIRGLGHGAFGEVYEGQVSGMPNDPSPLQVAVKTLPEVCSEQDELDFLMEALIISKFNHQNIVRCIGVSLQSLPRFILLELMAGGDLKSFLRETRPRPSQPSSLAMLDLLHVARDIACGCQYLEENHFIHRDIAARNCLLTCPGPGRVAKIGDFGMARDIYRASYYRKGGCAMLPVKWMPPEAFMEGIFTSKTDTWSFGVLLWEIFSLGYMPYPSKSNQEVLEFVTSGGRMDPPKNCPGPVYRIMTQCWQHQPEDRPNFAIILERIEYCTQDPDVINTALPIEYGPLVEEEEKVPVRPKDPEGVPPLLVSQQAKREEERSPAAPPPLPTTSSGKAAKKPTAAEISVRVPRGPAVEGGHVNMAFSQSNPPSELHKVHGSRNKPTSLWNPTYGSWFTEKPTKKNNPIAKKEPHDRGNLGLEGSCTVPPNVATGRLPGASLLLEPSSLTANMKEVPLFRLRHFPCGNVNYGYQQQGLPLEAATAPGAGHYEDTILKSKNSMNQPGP
Assay: ALK WT cell free enzymatic assay (TR-FRET)
Type: biochemical
Conditions: compound at 100 nM; 30 min pre-incubation; 1 μM ATP
Where a name gives a salt, the structure may show the parent alone.
MEASURED ATTRIBUTE: inhibition at 0.1 µM (%)

The cases that follow already have their inhibition at 0.1 µM on record.
{"MOLECULE": "Cc1nn(Cc2cccc(F)c2)c(C)c1-c1c[nH]c2ncc(-c3cccc(NC4CCNCC4)c3)cc12 [Example 94]", "SUBJECT OF TEST": "recombinant human ALK enzyme (ALK WT) (Homo sapiens)", "UNIT LABEL": "%", "inhibition at 0.1 µM": 98}
{"MOLECULE": "Cc1nn(Cc2cccc(C#N)c2)c(C)c1-c1c[nH]c2ncc(-c3ccc(N4CCNCC4)cc3)cc12 [Example 48, hydrochloride]", "SUBJECT OF TEST": "recombinant human ALK enzyme (ALK WT) (Homo sapiens)", "UNIT LABEL": "%", "inhibition at 0.1 µM": 52}

P = Cc1nn(Cc2cccc(F)c2)c(C)c1-c1c[nH]c2ncc(-c3ccc(N4CCNCC4)c(NS(C)(=O)=O)c3)cc12 [Example 58, hydrochloride]
Q = CNS(=O)(=O)c1cc(-c2cnc3[nH]cc(-c4c(C)nn(Cc5cccc(F)c5)c4C)c3c2)ccc1OC [Example 18]
// query Thinking about recorded inhibition at 0.1 µM values, which is higher, P or Q ? State the label of the item chosen.
// result P
(P: 92%, Q: 62%)
